Quick list: Nitrite per entry.
- System: RAW 264.7 cells
- EXPERIMENTAL DETAILS: Nitrite (NO) production/accumulation in LPS-stimulated RAW 264.7 cells
- Format: cell-based, murine
- CONDITION DESCRIPTION: Experiment II; LPS 100 ng/ml; compound 10 μg/ml; 16 hours
Your answer should be a plain number; it is taken to be in µM.

NC(=O)C1=C(O)C2(O)C(=O)C3=C(O)c4c(O)cccc4CC3CC2CC1=O (stereo not shown); 11.7
C[C@]12CCC(=O)C=C1CC[C@@H]1[C@@H]2[C@@H](O)C[C@@]2(C)[C@H]1CC[C@]2(O)C(=O)CO [Hydrocortisone, hydrocortisone, reference compound]; 12.9

Specify Nitrite for C[C@@]1(O)c2cccc(O)c2C(O)=C2C(=O)[C@]3(O)C(O)=C(C(N)=O)C(=O)C[C@@H]3C[C@@H]21 and stop. 20.3

Indicate the recorded Nitrite value for this compound: CN(C)C1C(=O)C(C#N)=C(O)C2(O)C(=O)C3=C(O)c4c(O)cccc4C(C)(O)C3CC12 (stereo not shown) 23.3

====

- System: OA-affected cartilage
- EXPERIMENTAL DETAILS: Spontaneous PGE2 release by OA-affected cartilage (ex vivo organ culture)
- Format: cell-based, human
- CONDITION DESCRIPTION: Table 2; 5 μg/ml
Reported values of PGE2 for individual entries
Please answer using a numeric value trailed by its unit.

Examples with their reported PGE2 follow.
C[C@H]1c2cccc(O)c2C(O)=C2C(=O)[C@]3(O)C(O)=C(C(N)=O)C(=O)C[C@@H]3[C@@H](O)[C@@H]21; 94.7 ± 39.2 ng/mL
NC(=O)C1=C(O)C2(O)C(=O)C3=C(O)c4c(O)cccc4CC3CC2CC1=O (stereo not shown); 88.0 ± 21.4 ng/mL
CN(C)C1C(=O)C(C#N)=C(O)C2(O)C(=O)C3=C(O)c4c(O)cccc4C(C)(O)C3CC12 (stereo not shown); 145.2 ± 61.6 ng/mL

Consider now this further compound.
For the compound C[C@@]1(O)c2cccc(O)c2C(O)=C2C(=O)[C@]3(O)C(O)=C(C(N)=O)C(=O)C[C@@H]3C[C@@H]21 , give its reported PGE2. 131.8 ± 37.7 ng/mL

Data origin: patent US6319910A
